Answer each item with its documented Kd.
test target: T1, cyno CD3 (cyno (cynomolgus monkey), UniProt Q95LI5 22-198)
T1 construct: whole, on cells; also called CD3 on Cynomolgus T-cells
T1 sequence (Q95LI5 22-198): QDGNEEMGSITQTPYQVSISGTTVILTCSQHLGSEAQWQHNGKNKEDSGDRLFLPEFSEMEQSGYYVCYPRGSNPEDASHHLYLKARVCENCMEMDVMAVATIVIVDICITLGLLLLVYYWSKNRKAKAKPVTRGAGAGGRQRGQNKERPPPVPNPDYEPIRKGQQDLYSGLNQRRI
test summary: cell binding, cynomolgus T-cells
Record the value in nM, omitting the unit from your answer.

**Query** Fill blank: measured Kd of the binder Fab1-HK129-5KPEG-Folate (Fab, V domains shown, pAF at HK129 (Kabat) conjugated to a bifunctional linker carrying folate and a linear 5K PEG (oxime), From E. coli; also called Fab1-5KPEG-Folate) VH: EVQLVESGGGLVQPGGSLRLSCAASGFTFNTYAMNWVRQAPGKGLEWVARIRSKYNNYATYYADSVKDRFTISRDDSKNILYLQMNSLKTEDTAVYYCVRHGNFGNSYVSWFAYWGQGTLVTVSS VL: QAVVTQEPSLTVSPGGTVTLTCRSSTGAVTTSNYANWVQQKPGQAPRGLIGGTNKRAPGTPARFSGSLLGGKAALTLSGAQPEDEAEYYCALWYSNLWVFGGGTKLTVLG is ____.
**Result** 3.31

**Query** Fill blank: measured Kd of the binder Fab1-HK129-LL157-pAF (Fab, V domains shown, pAF at LL157 (Kabat); pAF at HK129 (Kabat), From E. coli; double pAF variant, unconjugated; also called Fab1-HK129pAF-LL157pAF) VH: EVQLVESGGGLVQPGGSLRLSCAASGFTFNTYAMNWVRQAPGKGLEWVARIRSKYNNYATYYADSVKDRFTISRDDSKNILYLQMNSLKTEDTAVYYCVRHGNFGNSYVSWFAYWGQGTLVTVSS VL: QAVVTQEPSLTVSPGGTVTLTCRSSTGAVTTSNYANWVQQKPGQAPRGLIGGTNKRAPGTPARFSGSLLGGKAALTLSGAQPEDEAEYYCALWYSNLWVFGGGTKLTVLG is ____.
**Result** 0.955

**Query** Fill blank: measured Kd of the binder Fab1-HK129-LL157-BiFolate-Bi5KPEG (Fab, V domains shown, pAF at LL157 (Kabat) conjugated to a bifunctional linker carrying folate and 5K PEG (oxime); pAF at HK129 (Kabat) conjugated to a bifunctional linker carrying folate and 5K PEG (oxime), From E. coli; carries two folates and two 5K PEG; also called Fab1-HK129-LL157-Bi5KPEG-BiFolate) VH: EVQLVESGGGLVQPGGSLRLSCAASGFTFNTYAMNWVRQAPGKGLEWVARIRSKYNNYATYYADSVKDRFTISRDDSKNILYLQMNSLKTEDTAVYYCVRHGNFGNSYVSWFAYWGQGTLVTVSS VL: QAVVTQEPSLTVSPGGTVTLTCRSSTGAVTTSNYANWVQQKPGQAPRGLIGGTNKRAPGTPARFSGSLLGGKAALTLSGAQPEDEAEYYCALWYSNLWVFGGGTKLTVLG is ____.
**Result** 5.01

**Query** Fill blank: measured Kd of the binder Fab1-HK129-LL157-BiFolate (Fab, V domains shown, pAF at LL157 (Kabat) conjugated to folate (oxime); pAF at HK129 (Kabat) conjugated to folate (oxime), From E. coli; carries two folates) VH: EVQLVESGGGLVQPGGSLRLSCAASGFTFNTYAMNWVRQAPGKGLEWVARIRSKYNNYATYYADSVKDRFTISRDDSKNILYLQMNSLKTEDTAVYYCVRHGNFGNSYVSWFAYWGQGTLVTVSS VL: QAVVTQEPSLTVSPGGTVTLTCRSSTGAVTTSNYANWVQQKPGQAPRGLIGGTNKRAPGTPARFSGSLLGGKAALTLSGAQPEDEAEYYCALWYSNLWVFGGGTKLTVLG is ____.
**Result** 1

**Query** Fill blank: measured Kd of the binder Fab1-HK129-pAF (Fab, V domains shown, para-acetyl-phenylalanine (pAF) at HK129 (Kabat), From E. coli; carries no folate and no PEG; also called Fab1-HK129-pAF1; anti-CD3 Fab1-HK129-pAF control) VH: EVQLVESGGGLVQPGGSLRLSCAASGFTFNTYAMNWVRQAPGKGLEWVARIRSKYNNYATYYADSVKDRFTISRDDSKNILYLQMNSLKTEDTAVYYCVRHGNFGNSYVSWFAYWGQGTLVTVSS VL: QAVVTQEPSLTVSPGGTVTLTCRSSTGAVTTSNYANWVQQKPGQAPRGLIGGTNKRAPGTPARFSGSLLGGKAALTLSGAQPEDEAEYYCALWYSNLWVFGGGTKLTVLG is ____.
**Result** 2.67

**Query** Fill blank: measured Kd of the binder Fab1-HK129-Folate (Fab, V domains shown, pAF at HK129 (Kabat) conjugated to folate (oxime), From E. coli; also called Folate lead; parent control) VH: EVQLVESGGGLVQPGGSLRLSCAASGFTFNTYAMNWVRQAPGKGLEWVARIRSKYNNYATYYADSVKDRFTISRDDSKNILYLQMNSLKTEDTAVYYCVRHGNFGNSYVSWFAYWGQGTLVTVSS VL: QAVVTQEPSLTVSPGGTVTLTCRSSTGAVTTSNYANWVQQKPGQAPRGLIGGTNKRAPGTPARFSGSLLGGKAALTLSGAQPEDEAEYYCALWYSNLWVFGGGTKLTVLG is ____.
**Result** 2.69
